assayNotes: Selectivity index, ratio of CC50 for human RD cells to EC50 for EV71(FY)-Luc infected in human RD cells
Format: toxicity, cell-based
condition: read-out: Ratio CC50/EC50
readout: selectivity ratio

[in] Give the reported selectivity ratio for this molecule. CCN(CC)c1ccc(Oc2ccc(-c3[nH]c4cccc(F)c4c(=O)c3C)cc2F)cc1
[out] > 625

----------
assayNotes: Selectivity index, ratio of CC50 for human Caco2 cells to EC50 for MERS-CoV infected in human Caco2 cells
Format: toxicity, cell-based
condition: read-out: Ratio CC50/EC50
readout: selectivity ratio

[in] Give the reported selectivity ratio for this compound. CCN(CC)c1ccc(Oc2ccc(-c3[nH]c4cccc(F)c4c(=O)c3C)cc2F)cc1
[out] > 7.5

----------
Test system: Hepatitis C virus
assayNotes: Antiviral activity against EGFP-fused HCV JFH-1 harboring K78E/E2-G451R/NS3-M260K/NS5A-T462I mutant infected in human Huh7.5.1 cells assessed as reduction in viral RNA level after 2 days by qRT-PCR analysis
Type: functional, organism-based, Hepacivirus hominis
condition: JFH-1, Huh-7.5.1, 48 h
pEC50: −log10 of the molar value.
If the reported pEC50 equals or exceeds 6, assign y. If not, assign n.

Solved cases (2 shown):
compound	testTarget	assignedLabel
C#CCCC1(CCN(CC)c2ccc(Oc3ccc(-c4nc5cccc(F)c5c(OC)c4C)cc3F)cc2)N=N1	Hepatitis C virus	n
Cc1c(-c2ccc(Cc3ccc(C(C)(O)C(F)(F)F)cc3)cc2)[nH]c2cccc(F)c2c1=O (stereo not drawn)	Hepatitis C virus	y

[in] Answer whether pEC50 of Cc1c(-c2ccc(Cc3ccc(N4CCOCC4)cc3)cc2)[nH]c2cccc(F)c2c1=O is greater than or equal to 6.
[out] n

----------
Tested on: Influenza A virus
assayNotes: Antiviral activity against Gaussia tagged Influenza A virus (A/Puerto Rico/8/34(H1N1)) infected in MDCK cells assessed as inhibition of H1N1 replication measured at 24 hrs post infection by luciferase reporter gene assay
Assay type: functional, organism-based
condition: A/Puerto Rico/8/1934(H1N1)
readout: pEC50
Give bare numbers, as −log10 of the molar value.

[in] Give the reported pEC50 for this compound. CCN(CC)c1ccc(Oc2ccc(-c3[nH]c4cccc(F)c4c(=O)c3C)cc2F)cc1
[out] 6.62

----------
assayNotes: Cytotoxicity against African green monkey Vero cells infected with SFTSV measured after 48 hrs by WST1 assay
Type: cell-based
condition: chlorocebus sabaeus
readout: CC50 at 48 h

[in] Give the reported CC50 at 48 h for this compound. CCN(CC)c1ccc(Oc2ccc(-c3[nH]c4cccc(F)c4c(=O)c3C)cc2F)cc1
[out] > 2500 nM

----------
Test system: Middle East respiratory syndrome-related coronavirus
assayNotes: Antiviral activity against MERS-CoV infected in human Caco2 cells assessed as inhibition of viral replication measured at 18 hrs post-infection by plaque formation assay
Assay type: functional, organism-based
condition: Caco-2, 18 h
readout: pEC50
Numbers only, as −log10 of the molar value.

[in] Give the reported pEC50 for this molecule. CCN(CC)c1ccc(Oc2ccc(-c3[nH]c4cccc(F)c4c(=O)c3C)cc2F)cc1
[out] 6.48

----------
assayNotes: Selectivity index, ratio of CC50 for African green monkey Vero cells to EC50 for CHIKV infected in African green monkey Vero cells
Type: toxicity
condition: read-out: Ratio CC50/EC50
readout: selectivity ratio

[in] Give the reported selectivity ratio for this compound. CCN(CC)c1ccc(Oc2ccc(-c3[nH]c4cccc(F)c4c(=O)c3C)cc2F)cc1
[out] > 10
